Biological target: T1, human OX40 receptor (hOX40), residues 29-170 (human, UniProt P43489 29-170, biotinylated with biotin-NHS-LC in the competition ELISA (Table II); not biotinylated in the crystals (Tables 6 and 7))
T1 construct: Monomeric soluble receptor fragment; also called hOX40Receptor; HOX40 receptor
T1 sequence: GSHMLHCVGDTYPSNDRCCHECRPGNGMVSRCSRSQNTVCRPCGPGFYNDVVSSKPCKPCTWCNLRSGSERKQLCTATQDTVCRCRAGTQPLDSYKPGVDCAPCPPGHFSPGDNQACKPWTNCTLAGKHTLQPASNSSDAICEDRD
Assay: competition ELISA; hOX40L in solution with biotinylated hOX40, unbound receptor captured on plate-coated mOX40L (competitor)
MEASUREMENT_TYPE: pIC50
Field pIC50 (float): negative decimal logarithm of the concentration in molar.

human OX40L E123A in the N90D, N114D background, residues 51-183 (ligand, Properly assembled trimer by size exclusion chromatography) GSHMQVSHRYPRIQSIKVQFTEYKKEKGFILTSQKEDEIMKVQDNSVIINCDGFYLISLKGYFSQEVDISLHYQKDAEPLFQLKKVRSVNSLMVASLTYKDKVYLNVTTDNTSLDDFHVNGGELILIHQNPGEFCVL	6.73

Query: Identify pIC50 associated with the binder human OX40L (hOX40L) N90D, N114D double glycosylation mutant, residues 51-183 (ligand, Homotrimer; also called hOX40Ligand; hOX40L double glycosylation mutant) GSHMQVSHRYPRIQSIKVQFTEYKKEKGFILTSQKEDEIMKVQDNSVIINCDGFYLISLKGYFSQEVDISLHYQKDEEPLFQLKKVRSVNSLMVASLTYKDKVYLNVTTDNTSLDDFHVNGGELILIHQNPGEFCVL
Result: 7.21

Query: Identify pIC50 associated with the binder human OX40L D162A in the N90D, N114D background, residues 51-183 (ligand, Properly assembled trimer by size exclusion chromatography) GSHMQVSHRYPRIQSIKVQFTEYKKEKGFILTSQKEDEIMKVQDNSVIINCDGFYLISLKGYFSQEVDISLHYQKDEEPLFQLKKVRSVNSLMVASLTYKDKVYLNVTTDNTSLDAFHVNGGELILIHQNPGEFCVL
Result: 6.37

Query: Identify pIC50 associated with the binder human OX40L (hOX40L), wild type, residues 51-183 (ligand, Homotrimer; also called WT; OX40 ligand) GSHMQVSHRYPRIQSIKVQFTEYKKEKGFILTSQKEDEIMKVQNNSVIINCDGFYLISLKGYFSQEVNISLHYQKDEEPLFQLKKVRSVNSLMVASLTYKDKVYLNVTTDNTSLDDFHVNGGELILIHQNPGEFCVL
Result: 6.86

Query: Identify pIC50 associated with the binder human OX40L T144A in the N90D, N114D background, residues 51-183 (ligand, Properly assembled trimer by size exclusion chromatography) GSHMQVSHRYPRIQSIKVQFTEYKKEKGFILTSQKEDEIMKVQDNSVIINCDGFYLISLKGYFSQEVDISLHYQKDEEPLFQLKKVRSVNSLMVASLAYKDKVYLNVTTDNTSLDDFHVNGGELILIHQNPGEFCVL
Result: 6.86

Query: Identify pIC50 associated with the binder human OX40L Q80A in the N90D, N114D background, residues 51-183 (ligand, Properly assembled trimer by size exclusion chromatography) GSHMQVSHRYPRIQSIKVQFTEYKKEKGFILTSAKEDEIMKVQDNSVIINCDGFYLISLKGYFSQEVDISLHYQKDEEPLFQLKKVRSVNSLMVASLTYKDKVYLNVTTDNTSLDDFHVNGGELILIHQNPGEFCVL
Result: 6.27
